- subjectOfTest: human orexin type 2 receptor (Homo sapiens, UniProt O43614)
- Construct: expressed in transfected cells
- Sequence (O43614 1-444): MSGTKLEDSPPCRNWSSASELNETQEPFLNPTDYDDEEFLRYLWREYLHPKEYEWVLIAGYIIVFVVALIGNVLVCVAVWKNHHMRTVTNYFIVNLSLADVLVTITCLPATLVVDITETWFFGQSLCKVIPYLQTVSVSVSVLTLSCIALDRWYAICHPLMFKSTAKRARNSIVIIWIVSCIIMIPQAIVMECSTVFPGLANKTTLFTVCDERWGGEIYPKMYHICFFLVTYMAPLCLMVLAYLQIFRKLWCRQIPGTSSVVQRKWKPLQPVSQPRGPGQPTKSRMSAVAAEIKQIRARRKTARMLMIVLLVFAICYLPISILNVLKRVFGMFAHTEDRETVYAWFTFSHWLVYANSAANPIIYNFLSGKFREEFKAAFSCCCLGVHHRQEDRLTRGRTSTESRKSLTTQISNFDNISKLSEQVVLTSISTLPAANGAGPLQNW
- experiment: Measurement of orexin type 2 receptor agonist activity (calcium fluorescence, Fluo-4 AM, FDSS)
- Assay type: cell-based
- conditionContext: test compound 3 μM; CHO cells expressing human OX2 receptor; DMSO = 0%, orexin A (human) = 100%
Listed here are molecules together with their documented OX2R agonist activity (3 μM, %).
# do not omit the unit; it follows the number

// worked examples, OX2R agonist activity (3 μM, %) included
CC(O)[C@@H]1CN(C(=O)[C@@H]2C[C@@]2(F)c2ccccc2-c2c(F)cccc2F)[C@H]1CNS(C)(=O)=O (mixture of isomers) [Example 404] | 95%
Cc1ccc(C2CC2C(=O)N2CCC(NS(C)(=O)=O)C2)c(-c2ccccc2F)c1 (racemic) [Example 209] | 95%
CS(=O)(=O)NC1COCCN(C(=O)C2CC2c2ccccc2-c2c(F)cccc2F)C1 (racemic) [Example 219] | 96%
CCS(=O)(=O)NC[C@@H]1[C@H](F)CN1C(=O)[C@@H]1C[C@@]1(F)c1ccc(F)cc1-c1c(F)cccc1F [Example 412] | 111%
CCS(=O)(=O)NC[C@@H]1CCN1C(=O)[C@@H]1C[C@H]1c1ccccc1-c1c(F)cccc1F [Example 362] | 89%

Q) Using human orexin type 2 receptor (Homo sapiens, UniProt O43614) as the test system, report measured OX2R agonist activity (3 μM, %) of CS(=O)(=O)N[C@H]1CCCN(C(=O)C2CC2(F)c2ccccc2-c2c(F)cccc2F)C1 (single isomer, unassigned) [Example 306] .
A) 93%

Q) Using human orexin type 2 receptor (Homo sapiens, UniProt O43614) as the test system, report measured OX2R agonist activity (3 μM, %) of CS(=O)(=O)NC1CCN(C(=O)C2CC2c2c(F)cccc2-c2c(F)cccc2F)C1 (racemic) [Example 26] .
A) 104%

* * *

Listed here are compounds together with their documented OX2R agonist activity (3 μM, %).
- subjectOfTest: human orexin type 2 receptor (Homo sapiens)
- Construct: expressed in transfected cells
- experiment: Measurement of orexin type 2 receptor agonist activity (calcium fluorescence, Fluo-4 AM, FDSS)
- Type: cell-based
- conditionContext: test compound 3 μM; CHO cells expressing human OX2 receptor; DMSO = 0%, orexin A (human) = 100%
Number in %, nothing else.

Q) Input C[C@]1(NS(C)(=O)=O)CCN(C(=O)[C@@H]2C[C@H]2c2ccccc2-c2c(F)cccc2F)C1 (mixture of isomers) , output reported OX2R agonist activity (3 μM, %).
A) 96

Q) Input CCS(=O)(=O)NC[C@@H]1[C@H](F)CN1C(=O)C1(COC)CC1c1ccc(F)cc1-c1c(F)cccc1F (some centres unmarked) , output reported OX2R agonist activity (3 μM, %).
A) 99

Q) Input CS(=O)(=O)N[C@H]1C[C@@H](O)CN(C(=O)[C@@H]2C[C@@]2(F)c2ccccc2-c2c(F)cccc2F)C1 , output reported OX2R agonist activity (3 μM, %).
A) 101
